assay: Compound stability in rat liver microsomes; assay type: in vitro ADME; settings: pH 7.4; rat liver microsomes 0.5 mg protein/mL, compound 5 μM, NADPH 1.0 mM, 37° C.
MEASUREMENT NAME: half-life at 5 μM (min)

get_value(item= CC[C@H](Nc1ncnc(N)c1-c1ncc(C)o1)c1nc2cccc(Cl)c2c(=O)n1C1CC1 [Ex. 7] , readout=half-life at 5 μM) returns 10.5

get_value(item= CC[C@H](Nc1ncnc(N)c1-c1ccon1)c1nc2cccc(C)c2c(=O)n1C1CC1 [Ex. 47] , readout=half-life at 5 μM) returns 7.63

get_value(item= CC[C@H](Nc1ncnc(N)c1-c1ncnn1C)c1nc2cccc(Cl)c2c(=O)n1-c1ccccc1 [Ex. 10] , readout=half-life at 5 μM) returns 70.1

get_value(item= CC[C@H](Nc1ncnc(N)c1-c1nnc(C)o1)c1nc2cccc(C)c2c(=O)n1-c1ccccc1 [Ex. 38] , readout=half-life at 5 μM) returns 8.57

get_value(item= CC[C@H](Nc1ncnc(N)c1-c1nnc(C)o1)c1nc2cccc(Cl)c2c(=O)n1-c1ccccc1 [Ex. 1] , readout=half-life at 5 μM) returns 17.5

[I] CC[C@H](Nc1ncnc(N)c1-c1nc(C)no1)c1nc2cccc(Cl)c2c(=O)n1[C@@H]1C[C@@H]1F [Ex. 62]
[II] CC[C@H](Nc1ncnc(N)c1-c1nc(C)no1)c1nc2cccc(C)c2c(=O)n1-c1ccccc1C [Ex. 27]
(Q) Of I and II , whose reported half-life at 5 μM is numerically smaller? Your answer should be the label of the entry you select.
(A) II

----------
experiment: Compound stability in rat liver microsomes; type: in vitro ADME; settings: pH 7.4; rat liver microsomes 0.5 mg protein/mL, compound 5 μM, NADPH 1.0 mM, 37° C.
MEASUREMENT NAME: half-life at 5 μM (min)

get_value(item= CC[C@H](Nc1ncnc(N)c1-c1ccon1)c1nc2cccc(F)c2c(=O)n1C1CC1 [Ex. 48] , readout=half-life at 5 μM) returns 27

[A] CC[C@H](Nc1ncnc(N)c1-c1noc(C)n1)c1nc2ccccc2c(=O)n1-c1ccccc1F
[B] CC[C@H](Nc1ncnc(N)c1-c1nnc(C)o1)c1nc2cccc(F)c2c(=O)n1-c1ccccc1 [Ex. 40]
[C] CCc1noc(-c2c(N)ncnc2N[C@@H](CC)c2nc3cccc(Cl)c3c(=O)n2C2CC2)n1 [Ex. 56]
[D] CC[C@H](Nc1ncnc(N)c1-c1nnc(C)o1)c1nc2cccc(C)c2c(=O)n1-c1ccccc1C [Ex. 31]
(Q) Highest half-life at 5 μM first, then in falling order down to the smallest. Ranked list of labels, please, in the requested order.
(A) C, B, D, A
(C: 20.4 min, B: 12.6 min, D: 7.27 min, A: 2.69 min)

[1] CCc1nc(-c2c(N)ncnc2N[C@@H](C)c2nc3cccc(Cl)c3c(=O)n2C2CC2)no1 [Ex. 61]
[2] CC[C@H](Nc1ncnc(N)c1-c1ncn(C)n1)c1nc2cccc(Cl)c2c(=O)n1-c1ccc(F)cc1 [Ex. 50]
(Q) Of 1 and 2 , whose reported half-life at 5 μM is numerically smaller? Your answer should be the label of the entry you select.
(A) 1

----------
experiment: Pharmacokinetics after intravenous and oral administration in rats; assay type: in vivo, rat; conditions: rat, plasma, iv dosing, dose 0.5 mg/kg
MEASUREMENT NAME: AUC(0-t) (µg·h/mL)

get_value(item= CC[C@H](Nc1ncnc(N)c1-c1nnc(C)o1)c1nc2cccc(Cl)c2c(=O)n1-c1ccccc1 , readout=AUC(0-t)) returns 0.355

get_value(item= CC[C@H](Nc1ncnc(N)c1-c1nnc(C)o1)c1nc2cccc(Cl)c2c(=O)n1-c1ccccc1C , readout=AUC(0-t)) returns 0.157

[1] CC[C@H](Nc1ncnc(N)c1-c1ncnn1C)c1nc2cccc(Cl)c2c(=O)n1-c1ccccc1
[2] CC[C@H](Nc1ncnc(N)c1-c1ccccn1)c1nc2cccc(Cl)c2c(=O)n1C1CC1
(Q) Of 1 and 2 , whose reported AUC(0-t) is numerically smaller? Your answer should be the label of the entry you select.
(A) 2

----------
assay: Compound stability in human liver microsomes; type: in vitro ADME; conditions: human liver microsomes 0.5 mg protein/mL, compound 5 μM, NADPH 1.0 mM, 37° C.
MEASUREMENT NAME: half-life at 5 μM (min)

Illustrative cases are given below, each with its answer.
get_value(item= CC[C@H](Nc1ncnc(N)c1-c1nc(C)co1)c1nc2cccc(Cl)c2c(=O)n1C1CC1 [Ex. 52] , readout=half-life at 5 μM) returns 7.72

get_value(item= CC[C@H](Nc1ncnc(N)c1-c1ncc(C)o1)c1nc2cccc(C)c2c(=O)n1-c1ccccc1C [Ex. 28] , readout=half-life at 5 μM) returns 8.69

get_value(item= CC[C@H](Nc1ncnc(N)c1-c1noc(C)n1)c1nc2ccccc2c(=O)n1-c1ccccc1F , readout=half-life at 5 μM) returns 11

get_value(item= CC[C@@H](Nc1ncnc(N)c1-c1nc(C)no1)c1nc2cccc(Cl)c2c(=O)n1C1CC1 [Ex. 19] , readout=half-life at 5 μM) returns 52.4

get_value(item= CC[C@H](Nc1ncnc(N)c1-c1nc(C)no1)c1nc2cccc(C)c2c(=O)n1-c1ccccc1C [Ex. 27] , readout=half-life at 5 μM) returns 14.9

get_value(item= CC[C@H](Nc1ncnc(N)c1-c1ncnn1C)c1nc2cccc(Cl)c2c(=O)n1-c1ccccc1 [Ex. 10] , readout=half-life at 5 μM) returns 92

get_value(item= C[C@H](Nc1ncnc(N)c1-c1ncn(C)n1)c1nc2cccc(Cl)c2c(=O)n1C1CC1 [Ex. 44] , readout=half-life at 5 μM) returns 13.6

get_value(item= CC[C@H](Nc1ncnc(N)c1-c1ccon1)c1nc2cccc(F)c2c(=O)n1C1CC1 [Ex. 48] , readout=half-life at 5 μM) returns 136

get_value(item= CC[C@H](Nc1ncnc(N)c1-c1ncnn1C)c1nc2cccc(Cl)c2c(=O)n1C1CC1 [Ex. 9] , readout=half-life at 5 μM) returns 160

get_value(item= CC[C@H](Nc1ncnc(N)c1-c1ncn(C)n1)c1nc2cccc(F)c2c(=O)n1C1CC1 [Ex. 26] , readout=half-life at 5 μM) returns 74.5

[a] CC[C@H](Nc1ncnc(N)c1-c1nnc(C)o1)c1nc2cccc(Cl)c2c(=O)n1-c1ccccc1 [Ex. 1]
[b] CC[C@H](Nc1ncnc(N)c1-c1nnc(C)o1)c1nc2ccccc2c(=O)n1-c1ccccc1F [Ex. 24]
(Q) Of a and b , whose reported half-life at 5 μM is numerically smaller? Your answer should be the label of the entry you select.
(A) b
(b: 17.1 min, a: 53.5 min)

----------
assay: Pharmacokinetics after intravenous and oral administration in rats; type: in vivo, rat; conditions: rat, plasma, iv dose 1 mg/kg, oral dose generally 5 or 10 mg/kg
MEASUREMENT NAME: bioavailability (%)

get_value(item= CC[C@H](Nc1ncnc(N)c1-c1nc(C)no1)c1nc2cccc(C)c2c(=O)n1-c1ccccc1C , readout=bioavailability) returns 49.8

get_value(item= CC[C@H](Nc1ncnc(N)c1-c1nc(COC)n(C)n1)c1nc2cccc(Cl)c2c(=O)n1C1CC1 , readout=bioavailability) returns 20.2

get_value(item= CC[C@H](Nc1ncnc(N)c1-c1nnc(C)o1)c1nc2cccc(F)c2c(=O)n1-c1ccccc1 , readout=bioavailability) returns 112

get_value(item= CC[C@H](Nc1ncnc(N)c1-c1nc(C)no1)c1nc2cccc(Cl)c2c(=O)n1C1CC1 , readout=bioavailability) returns 76.1

[1] CC[C@H](Nc1ncnc(N)c1-c1noc(C)n1)c1nc2cccc(C)c2c(=O)n1C1CC1
[2] CC[C@H](Nc1ncnc(N)c1-c1ccn(C)n1)c1nc2cccc(Cl)c2c(=O)n1C1CC1
[3] CC[C@H](Nc1ncnc(N)c1-c1ccon1)c1nc2cccc(C)c2c(=O)n1C1CC1
(Q) Rank the items in ascending order with respect to bioavailability. Ranked list of labels, please, in the requested order.
(A) 3, 1, 2

[a] CC[C@H](Nc1ncnc(N)c1-c1nc(C)no1)c1nc2cccc(F)c2c(=O)n1C1CC1
[b] CC[C@H](Nc1ncnc(N)c1-c1nnc(C)o1)c1nc2cccc(F)c2c(=O)n1C1CC1
(Q) Could you please tell me which of these two has the higher bioavailability: a or b ? Your answer should be the label of the entry you select.
(A) b

----------
experiment: Pharmacokinetics after intravenous and oral administration in monkeys; format: in vivo; settings: plasma; Monkey, iv dosing, dose 1 mg/kg
MEASUREMENT NAME: AUC(0-t) (ng·h/mL)

[I] Cc1nnc(-c2c(N)ncnc2N[C@@H](C)c2nc3cccc(Cl)c3c(=O)n2-c2ccccc2)o1
[II] CC[C@H](Nc1ncnc(N)c1-c1nc(C)no1)c1nc2cccc(Cl)c2c(=O)n1C1CC1
[III] Cc1noc(-c2c(N)ncnc2N[C@@H](C)c2nc3cccc(Cl)c3c(=O)n2-c2ccccc2)n1
(Q) Form: Sort by [AUC(0-t)] Order [ ascending ] Ranked list of labels, please, in the requested order.
(A) III, II, I
(III: 1060 ng·h/mL, II: 1520 ng·h/mL, I: 2340 ng·h/mL)
